The reader will find reported IC50 (μM) values listed item by item below.
# Measured Target: VEGF (human recombinant VEGFA165); VEGF‐induced VEGFR‐2 activation in HUVECs (Homo sapiens)
# Construct: purchased R&D Systems, Abingdon, UK
# Sequence (P15692 1-191 isoform P15692-4): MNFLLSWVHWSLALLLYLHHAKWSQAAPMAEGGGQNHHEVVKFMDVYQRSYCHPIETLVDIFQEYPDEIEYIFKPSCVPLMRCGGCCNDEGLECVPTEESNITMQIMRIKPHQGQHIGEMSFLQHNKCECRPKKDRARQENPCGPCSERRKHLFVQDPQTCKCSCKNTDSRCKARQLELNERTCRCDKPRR
# Protocol Details: Inhibition of VEGF‐induced VEGFR‐2 phosphorylation in HUVECs after pre‐incubating VEGF with polyphenol (Phospho‐VEGFR‐2 Tyr1175 ELISA)
# Assay type: cell-based
# Study Conditions: VEGF 25 ng/mL pre‐incubated 5 min with polyphenol, then HUVECs 5 min; phospho‐VEGFR‐2 ELISA; 95% confidence intervals in parentheses

# example entries with known answers
Q: Recorded IC50 (μM) of `COc1cc(O)c2c(=O)c(O)c(-c3ccc(O)c(O)c3)oc2c1` , please.
Result: 0.547 (0.527–0.568) μM

Q: May I ask what IC50 (μM) has been recorded for `O=c1c(-c2ccc(O)c(O)c2)coc2cc(O)cc(O)c12` ?
Result: 3.311 (3.047–3.598) μM

Q: Find the recorded IC50 (μM) belonging to Oc1cc(O)c2c(c1)O[C@H](c1cc(O)c(O)c(O)c1)[C@H](O)C2 [EGC, epigallocatechin] and report it.
Result: 42.9 (36.96–49.97) μM

---
Q: What IC50 (μM) value was documented for this molecule, O=C(O[C@@H]1Cc2c(O)cc(O)cc2O[C@@H]1c1cc(O)c(O)c(O)c1)c1cc(O)c(O)c(O)c1 [EGCG, epigallocatechin gallate] ?
Result: 0.088 (0.078–0.100) μM

---

# Measured Target: VEGF (human recombinant VEGFA165); VEGF‐induced VEGFR‐2 activation in HUVECs (Homo sapiens)
# Construct: purchased R&D Systems, Abingdon, UK
# Protocol Details: Inhibition of VEGF‐induced VEGFR‐2 phosphorylation in HUVECs after pre‐incubating VEGF with polyphenol (Phospho‐VEGFR‐2 Tyr1175 ELISA);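 further: sandwich ELISA of VEGFR-2 phosphorylated at Tyr1175 in lysates of confluent HUVECs, with VEGF alone and DMSO vehicle (≤0.1%) as control incubations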
# Type: cell-based
# Study Conditions: at 100 μM polyphenol; HUVECs
Reported Property: Inhibition (%)

Known Inhibition (%) results, listed for orientation:
Q: Which Inhibition (%) value belongs to COC(=O)c1cc(O)c(O)c(O)c1 [Methyl gallate] ?
Result: Ineffective (100 μM)

Q: Given the molecule O=c1cc(-c2ccc(O)c(O)c2)oc2c(O)c(O)ccc12 [3′,4′,7,8‐tetrahydroxyflavone] , what is its reported Inhibition (%)?
Result: 63.2 (100 μM) %

Q: I'd like to know its Inhibition (%). The molecule in question is `O=C1c2c(O)cc(O)cc2O[C@H](c2ccc(O)c(O)c2)[C@H]1O`
Result: 12.3 (100 μM) %

Q: Look up Inhibition (%) for this molecule: `O=c1cc(-c2ccccc2)oc2cc(O)cc(O)c12`
Result: 58.6 (100 μM) %

Others:
Q: Would you kindly share the measured Inhibition (%) for `O=C1C[C@@H](c2ccc(O)cc2)Oc2cc(O)cc(O)c21` ?
Result: 88.5 (100 μM) %

Q: Would you kindly share the measured Inhibition (%) for `COc1ccc(-c2oc3cc(O)cc(O)c3c(=O)c2O)cc1O` ?
Result: 100 (100 μM) %

Q: If you can, please state the reported Inhibition (%) value of O=c1cc(-c2ccccc2)oc2cc(O)ccc12 [7‐hydroxyflavone] .
Result: Ineffective (100 μM)

Q: For the molecule `O=c1cc(-c2ccccc2)oc2ccccc12` , what Inhibition (%) is on record?
Result: Ineffective (100 μM)

Q: Which Inhibition (%) value belongs to `COc1ccc(-c2cc(=O)c3c(OC)c(OC)c(OC)cc3o2)cc1OC` ?
Result: Ineffective (100 μM)

Q: Request the reported Inhibition (%) associated with O=c1c(O)c(-c2ccccc2)oc2ccccc12 [3‐hydroxyflavone]
Result: 52.8 (100 μM) %
